Data provenance: the supplement of paper PMC12645437

Molecular target: T1, CRBN, Q96SW2;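 note: pooled lentiviral library of zinc finger degron-EGFP fusions in mCherry-positive Jurkat cells, FACS-sorted after compound exposure, with degron abundance counted by next-generation sequencing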
T1 chain: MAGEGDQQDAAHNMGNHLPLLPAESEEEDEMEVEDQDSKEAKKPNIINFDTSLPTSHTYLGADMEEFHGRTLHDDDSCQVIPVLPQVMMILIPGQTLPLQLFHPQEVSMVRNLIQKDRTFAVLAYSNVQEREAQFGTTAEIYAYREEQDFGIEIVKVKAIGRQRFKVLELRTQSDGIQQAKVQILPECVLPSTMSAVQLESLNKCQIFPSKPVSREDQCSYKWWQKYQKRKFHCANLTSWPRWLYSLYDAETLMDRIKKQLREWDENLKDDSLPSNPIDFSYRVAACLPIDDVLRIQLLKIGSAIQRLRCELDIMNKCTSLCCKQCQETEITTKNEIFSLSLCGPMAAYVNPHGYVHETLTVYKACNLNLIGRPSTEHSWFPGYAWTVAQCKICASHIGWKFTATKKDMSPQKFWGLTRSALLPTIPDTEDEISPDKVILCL
Assay: log2 fold change of degron read counts, EGFP-low vs EGFP+ sorted cells (limma voom), compound-induced degradation; higher = more compound-induced degradation of the degron-EGFP fusion; degrons are variants of IKZF1/3 zinc finger 2; compound dose not given here
Details: Jurkat; 18 h; compound: compound 33 (diphenyl IMiD analogue)
In all, about 8,300 sequences were measured (“log2 fold change of degron read counts, EGFP-low vs EGFP+ sorted cells (limma voom), compound-induced degradation”: median about -1.1, highest 2% from about 3.2 on). The list comes from a sample in which the highest values are over-represented; it also holds close analogues and randomly drawn sequences.
Below, each entry is listed with its recorded log2 fold change of degron read counts.

# entry sequence, log2 fold change of degron read counts
records = [
    ("FLCPICGACFTQKGNLLRHIKL [46F_47L_49P_50I_52G_53A_54C_55F_67L_, Q9UKT9]", 1.79),
    ("FDCPICGACFTQKGNLLRHIKL [46F_47D_49P_50I_52G_53A_54C_55F_67L_, Q9UKT9]", 2.22),
    ("FICPICGACFTQKGNLLRHIKL [46F_47I_49P_50I_52G_53A_54C_55F_67L_, Q9UKT9]", 1.94),
    ("FMCPICGACFTQKGNLLRHIKL [46F_47M_49P_50I_52G_53A_54C_55F_67L_, Q9UKT9]", 2.49),
]
